Tested on: RXF 393 renal
Experiment: NCI-60 one-dose screen, 48 h (100 = growth as untreated, 0 = no growth, -100 = all killed)
Conditions: 10 µM unless noted
About 83,000 compounds went through this panel and 20% of them were active in at least one assay; those are over-represented in the sample as a whole.
Mark true (1) only for growth values smaller than 60%; exact matches and larger values are false (0).

1) COc1cccc(-c2cc(-c3ccc(Nc4nc(Nc5ccc(Cl)cc5)nc(Nc5ccc(Cl)cc5)n4)cc3)nc(N)c2C#N)c1    true (1)
2) O=C1c2ccccc2-c2c1c1ccncc1c(=O)n2CCCn1ccnc1    true (1)
3) O=C1/C(=C/c2ccc(-c3ccc(Cl)cc3)o2)SC(=S)N1CCc1ccc(O)cc1    false (0)
4) COC(=O)CCc1c(/C=C2\N=C(c3ccc[nH]3)C=C2OC)[nH]c(C)c1C(=O)OCc1ccccc1    true (1)
5) COc1ccc(S(=O)(=O)Oc2ccc(-c3sc4cc(OS(=O)(=O)c5ccc(OC)cc5)ccc4c3C(=O)c3ccc(OCCN4CCCCC4)cc3)cc2)cc1    false (0)
6) COc1ccccc1/C=C/C1=C(C)CCC(c2ccccc2OC)C1C (centres undefined)    true (1)
7) CCCCCCCC/C=C\CCCCCCCCOc1ccc(CC(=O)NCC[N+]2(C)CCCC2)cc1    true (1)
8) COc1ccc(-c2csc(NC(=O)CSc3nc(C)cc(=O)[nH]3)n2)cc1    false (0)
9) COC(=O)c1c(C)nc(C)c2c1C(=O)C(Br)=C(NCCCCO)C2=O    false (0)

###

Tested on: NCI-H226 lung
Test: NCI-60 one-dose screen, 48 h
Conditions: 10 µM unless noted
Compounds without any hit were thinned out: in the full panel of roughly 83,000, 20% have a hit. Active and inactive are the calls of the source. The calls were made as follows: active = growth percent below 10; inactive = the rest.
Classes used: active, inactive

1. COc1cccc(C2C3=C(COC3=O)N(CCO)c3cc4c(cc32)OCCO4)c1 (stereo not given)    inactive
2. COc1ccc(/C=C2/CCc3cc4ccc(OC)cc4[o+]c32)c(O)c1    inactive
3. CCOC(=O)C1=CCC(n2cc(F)c(=O)[nH]c2=O)O1 (stereo not given)    inactive
4. CC1=C(C(=O)c2ccccc2)C(c2ccc3c(c2)OCO3)NC(=S)N1 (stereo not given)    inactive
5. CN(C)CCOc1nc2c3cc([N+](=O)[O-])ccc3nn2c2ccccc12    inactive
6. COc1cc(NC(=O)c2cncnc2Nc2ccc3c(ccn3Cc3cccc(F)c3)c2)cc(OC)c1    inactive
7. O=C(Oc1ccccc1)c1cc(O)c(O)c(O)c1    inactive
8. COc1ccc(NC(=O)c2sc3nc(C)c(C(=O)c4ccccc4)cc3c2N)cc1    inactive
9. CN1C(=O)N(C)C2C1NN=c1s/c(=C\c3ccccc3F)c(=O)n12 (stereo not given)    inactive
10. CCCNNC(=O)c1ccc(CNC(=O)/C=C/c2ccccc2)cc1    inactive
11. CSc1nc(CC(C)C)c(C#N)c(=O)n1C    inactive
12. COc1c(O[C@@H]2OC(CO)[C@H](O)[C@H](O)C2O)cc2oc3cc(O)c(CC=C(C)C)c(O)c3c(=O)c2c1CC=C(C)C (stereo not given in full)    inactive
13. COc1ccc(/C=N/NC(=O)Cn2nnc3ccccc32)cc1    inactive
14. O=c1c(/C=C/c2c(O)ccc3ccccc23)nnc2sc(-c3cccc([N+](=O)[O-])c3)nn12    inactive
15. C#CCOc1ccc(C2=NN(CCCC)C3N=C(Cl)c4ncn(CCCC)c4N23)cc1OCC#C (stereo not given)    inactive
16. O=C1/C(=C/c2ccc(-c3ccc(Cl)cc3)o2)SC(=S)N1CCc1ccc(O)cc1    inactive
17. Cc1oc2ccc(O)c(CN3CCCCCC3)c2c1C(=O)Nc1ccc(C(F)(F)F)cc1    inactive
18. CN1CC(c2ccccc2)C(C(=O)c2ccc(Br)cc2)C12C(=O)Nc1ccccc12 (stereo not given)    inactive
19. O=c1ccc2c(ccc3ncccc32)o1    inactive
20. O=C(Nc1cccc(Cl)c1)Oc1c(Cl)c(Cl)c(Cl)c(Cl)c1Cl    inactive
21. CCCC[N+]1(C)CCN=C1Cc1ccccc1 (stereo not given)    inactive
22. Cc1cc(C)n(C(=O)CSc2nc3sc4c(c3c(=O)n2-c2ccccc2)CCCCC4)n1    inactive
23. Fc1ccc(/C=C/c2cc(/C=C/c3ccc(F)cc3)n(-c3cc(F)cc(F)c3)n2)cc1    inactive
24. COc1cc(-c2c(-c3ccccc3)c[nH]c2C(=O)NCCCO)c(OC)c2c1OCO2    inactive
25. CCN1C(=O)N(CC)C2C1NN=c1s/c(=C3\C(=O)N(C)c4ccccc43)c(=O)n12 (stereo not given)    inactive
26. CC(C)c1nc(N(C)S(C)(=O)=O)nc(-c2ccc(F)cc2)c1/C=C/C(=O)C[C@@H](O)CC(=O)O    inactive
27. O=C(OCC(O)(CO)C(=O)NC12CC3CC(CC(C3)C1)C2)c1ccc(Cl)cc1 (stereo not given)    inactive
28. CCCCCCCCNC(=O)[C@@H](N)CSCOC(C)=O    inactive
29. C=C(CNCCO)[C@@H]1CC[C@]2(CO)CC[C@]3(C)[C@H](CC[C@@H]4[C@@]5(C)CCC(NCCO)C(C)(C)[C@@H]5CC[C@]43C)[C@@H]12 (stereo not given in full)    inactive
30. COc1cc(OCc2cccc(-c3ccccc3)c2C)cc(OC)c1CN1CCCCC1C(=O)NCCOCCOCCN (stereo not given)    inactive
31. CN1CCN(CCCNC(=O)c2c3c(n4ccccc24)C(=O)c2ncccc2C3=O)CC1    inactive
32. CCOC(=O)c1cnc2sc(-c3ccc(OC)cc3)nc2c1Cl    inactive
33. COc1ccc(C2CC(=O)Oc3c(OC)c4c(c(OC)c32)OCO4)cc1 (stereo not given)    inactive
34. CC(C)=CCC[C@](C)(O)C1CC[C@]2(C)[C@@H]1CC[C@@H]1[C@@]3(C)CC/C(=N\OCCC#N)C(C)(C)[C@@H]3CC[C@]12C (stereo not given in full)    inactive
35. COc1cccc(NC(=O)c2sc3nc(C)c(C(=O)c4ccccc4)cc3c2N)c1    inactive
36. Cc1c2ccncc2c(C)c2c1c1ccccc1n2CCCCCC(=O)O    inactive
37. CC(C)n1nc(-c2ccc3oc(N)nc3c2)c2c(N)ncnc21    active
38. CC(CN)[C@@H]1CC[C@]2(CO)CC[C@]3(C)[C@H](CC[C@@H]4[C@@]5(C)CCC(NCCO)C(C)(C)[C@@H]5CC[C@]43C)[C@@H]12 (stereo not given in full)    inactive
39. C=C(C)Cn1c(SCC(=O)c2cccs2)nc2sc3c(c2c1=O)CCCC3    inactive
40. N#C/C(=C/C=C/c1ccccc1)S(=O)c1ccccc1 (stereo not given)    inactive

###

Test system: HCC-2998 colon
Assay: NCI-60 one-dose screen, 48 h (100 = growth as untreated, 0 = no growth, -100 = all killed)
Settings: 10 µM unless noted
This is part of a sample that, as a whole, favours compounds with a hit. Of some 83,000 tested, about 20% had one in any assay. Active and inactive are the calls of the source. Rule for the calls: active = growth percent below 10; inactive = the rest.
Quick reference: growth of the listed items.
observed_property: growth

1) O=C(O)/C=C\C(=O)Nc1ccc2c(c1)Cc1cc(F)ccc1-2    97.6% (inactive)
2) O=C(/C=C\c1ccc(O)c(O)c1)c1ccccc1O    60.7% (inactive)
3) O=CN1N=C(c2cccc(Nc3ccncc3)c2)CC1c1ccc2c(c1)OCO2 (configuration not stated)    98.5% (inactive)
4) C=CC(=O)Nc1ccc2ncnc(Nc3cccc(NS(=O)(=O)CCC)c3Cl)c2c1    93.3% (inactive)
5) CN(C)CC1C(=O)O[C@H]2[C@H]1CC/C(COC(=O)NCc1ccc(Cn3c(=O)sn(CCCI)c3=O)cc1)=C\CC[C@@]1(C)O[C@@H]21 (some centres not stated)    41% (inactive)
6) CNc1nc2ncc(-c3c(C)noc3C)cc2n1Cc1ccccc1    63.4% (inactive)
7) N#C/C(=C\c1cccc2cnccc12)N1N=NC2C=CC=CC21 (configuration not stated)    91.7% (inactive)
8) CN1CCN(Cc2ccc(NC(=O)c3cncc(C#Cc4c(N)ncc5ccccc45)c3)cc2C(F)(F)F)CC1    -60.7% (active)
9) CN(C)CCCN(CCC1CCCCC1)CCC1CCCCC1    -88.1% (active)
10) N#CC1=C(N)Oc2c(ccc3cccnc23)C1c1ccccc1 (configuration not stated)    50.4% (inactive)
11) O=C(CN1C(=O)NC2NC(=O)NC21)N/N=C/c1cccc([N+](=O)[O-])c1 (configuration not stated)    118% (inactive)
12) CO[C@H]1CC(c2ccc[nH]2)=N[C@]12O[C@@H](C)C[C@@H]1CCCCCCCc3ccc([nH]3)[C@H]12    22.1% (inactive)
13) C/C=C(/C)C(=O)O[C@@H]1CC(C)(C)CC2C34OC(=O)[C@@]21CC[C@@]3(C)[C@]1(C)CCC2C(C)(C)C(=O)CC[C@]2(C)C1C[C@@H]4O (some centres not stated)    73.1% (inactive)
14) CCN1CCN(C(=O)[C@]23CC[C@@H](C)[C@H](C)[C@@H]2C2=CC[C@@H]4[C@@]5(C)C/C(=C/c6ccncc6)C(=O)C(C)(C)[C@@H]5CC[C@@]4(C)[C@]2(C)CC3)CC1    -28.9% (active)
15) NC(=N\N=C/c1ccc(Cl)cc1Cl)/C(N)=N\N=C/c1ccc(Cl)cc1Cl    88.8% (inactive)
16) Cc1cc(C)n(C(=O)CSc2nc3sc4c(c3c(=O)n2-c2ccccc2)CCCCC4)n1    109% (inactive)
17) COc1cccc(C(=O)Nc2cccc(NC(=O)c3ccccn3)c2)c1    83.2% (inactive)
18) COc1ccc(C(=O)/C=C/c2ccc(C)cc2)cc1S(N)(=O)=O    99% (inactive)
19) CO[C@H]1/C=C/O[C@@]2(C)Oc3c(C)c(O)c4c(O)c(c5c(nc6cc(C)ccn65)c4c3C2=O)NC(=O)/C(C)=C\C=C\[C@H](C)[C@H](O)[C@@H](C)C(O)[C@@H](C)[C@H](OC(C)=O)[C@@H]1C (some centres not stated)    106% (inactive)
20) Cc1[nH]c(C(=O)Nc2ccc(C(N)=O)cc2OC(C)C)c(Cl)c1Cl    110% (inactive)
21) COc1ccc(/C=C/C(=O)c2ccc(-n3cc(CN4CCN(c5cc6c(cc5F)c(=O)c(C(=O)O)cn6C5CC5)CC4)nn3)cc2)cc1    44% (inactive)
22) COc1cc(-c2c(-c3ccccc3)c[nH]c2C(=O)NCCCO)c(OC)c2c1OCO2    110% (inactive)
23) CCOC(=O)c1cnc2sc(-c3ccc(OC)cc3)nc2c1Cl    114% (inactive)
24) C=CCNc1nc(O)c(/C=C2\C=Nc3ncccc32)s1    44.6% (inactive)
25) O=C1NCCN1/N=C/c1c(Cl)n(Cc2ccc(Cl)cc2)c2ccccc12    95.9% (inactive)
26) N=C(N)c1ccc(-c2ccc(-c3ccc(Cl)cc3Cl)s2)nc1    -33% (active)
27) Brc1ccc(-c2nn(-c3ccccc3)cc2-c2nn[nH]n2)s1    97.6% (inactive)
28) CCOC(=O)CC1CSC(N/N=C/c2ccc(O)cc2)=N1 (configuration not stated)    97.4% (inactive)
29) CCCN1C2CCC1/C(=C\c1ccc(OC)cc1)C(=O)/C2=C/c1ccc(OC)cc1    91.9% (inactive)
30) C/C(=N\NC(=O)c1ccc(C(C)(C)C)cc1)c1ccc(O)cc1O    8.71% (active)
31) CN1CCN(Cc2ccc(NC(=O)c3cc(C#Cc4cnc(N)c5ncccc45)n(C)n3)cc2C(F)(F)F)CC1    128% (inactive)
32) COCCn1cc(-c2nc(-c3cc4cccnc4n3C)cs2)c2cc(OC)ccc21    39.6% (inactive)
33) C#Cc1ccc(NC(=O)Cc2ccc(/C=C/C(=O)c3nccn3C)cc2)cc1    82.3% (inactive)
34) CCOC(=O)C1=C(c2ccccc2)N=C2SC=C(c3cccc([N+](=O)[O-])c3)N2C1c1ccc(O)cc1 (configuration not stated)    101% (inactive)
35) CCOC(=O)c1c(C)c2c(n1Cc1ccccc1)CSc1cc(C#N)c(=O)[nH]c1-2    99.7% [100 µM] (inactive)
36) COc1cc(C(=O)n2nc(NCCCc3ccccc3)c3cc(N)ccc32)cc(OC)c1OC    105% (inactive)
37) C=C1C(=O)O[C@H]2[C@H]1CC/C(CNC(=O)/C=C/c1cc(OC)c(OC)c(OC)c1)=C\CC[C@@]1(C)O[C@@H]21    -79% (active)

Where do these numbers come from? They come from PubChem BioAssay (NCI).
